Target: Insulin-like growth factor 1 receptor (Homo sapiens)
Conditions: at 1 µM
List of residual activity values.
// note: answer is a bare numeric in %

Some compounds with known residual activity results, for comparison:
| SMILES_STR | TESTED_TARGET | ENDPOINT | VALUE_OBSERVED |
| --- | --- | --- | --- |
| CCN1/C(=C/C(C)=O)Sc2ccc(OC)cc21 | Insulin-like growth factor 1 receptor (Homo sapiens) | residual activity | 70 |
| COc1cc2nccc(Oc3ccc(NC(=S)NC(=O)c4ccccc4C)cc3)c2cc1OC | Insulin-like growth factor 1 receptor (Homo sapiens) | residual activity | 120 |
| O=C(c1cc2cc(O)ccc2[nH]1)c1cc2cc(O)ccc2[nH]1 | Insulin-like growth factor 1 receptor (Homo sapiens) | residual activity | 65 |

## Input State its residual activity on Insulin-like growth factor 1 receptor (Homo sapiens): `Nc1n[nH]c2nc3ccccc3nc12`
## Output 121

## Input For `c1ccc(-c2cnc(Nc3ccc(OCCN4CCCC4)cc3)s2)cc1` then?
## Output 119

## Input Also `COc1ccc(-c2cnc3c(-c4ccsc4)cnn3c2)cc1` ?
## Output 134

## Input Now give it for `O=C1NC(=O)C(c2c[nH]c3ccccc23)=C1c1c[nH]c2ccccc12` too.
## Output 128

###

Target: Inhibitor of nuclear factor kappa-B kinase subunit beta (Homo sapiens) (UniProt O14920)
Sequence (O14920 whole entry): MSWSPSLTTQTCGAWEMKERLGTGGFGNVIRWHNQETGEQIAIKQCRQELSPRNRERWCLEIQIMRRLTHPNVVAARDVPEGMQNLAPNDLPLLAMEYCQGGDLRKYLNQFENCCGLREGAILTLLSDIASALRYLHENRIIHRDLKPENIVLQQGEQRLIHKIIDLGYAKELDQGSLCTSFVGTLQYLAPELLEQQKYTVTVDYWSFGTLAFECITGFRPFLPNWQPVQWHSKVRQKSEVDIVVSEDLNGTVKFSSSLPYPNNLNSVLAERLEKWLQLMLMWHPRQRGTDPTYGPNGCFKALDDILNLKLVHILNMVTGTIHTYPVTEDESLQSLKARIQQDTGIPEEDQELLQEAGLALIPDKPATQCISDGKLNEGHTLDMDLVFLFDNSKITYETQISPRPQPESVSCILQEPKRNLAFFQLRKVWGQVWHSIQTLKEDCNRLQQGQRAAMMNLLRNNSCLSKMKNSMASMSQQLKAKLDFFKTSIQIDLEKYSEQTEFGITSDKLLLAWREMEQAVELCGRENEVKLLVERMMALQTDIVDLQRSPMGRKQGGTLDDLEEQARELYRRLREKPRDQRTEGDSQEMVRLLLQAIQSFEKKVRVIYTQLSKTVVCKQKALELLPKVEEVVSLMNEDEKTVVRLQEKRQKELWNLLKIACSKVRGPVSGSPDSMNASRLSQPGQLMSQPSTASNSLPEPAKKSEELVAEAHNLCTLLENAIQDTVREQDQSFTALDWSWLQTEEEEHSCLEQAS
Settings: at 10 µM
ENDPOINT: residual activity (%)
Express it in %; write the number only.

| SMILES_STR | residual activity [%] |
| --- | --- |
| Cn1c2ccccc2c2c3c(c4c5ccccc5n(CCC#N)c4c21)CNC3=O | 63 |
| O=C1NC(=O)c2c1c1c3ccccc3[nH]c1n1cncc21 | 80 |
| CC(C)c1nn(-c2c(Cl)cccc2Cl)c2nc(Cc3ccc(OCCO)cc3)[nH]c(=O)c12 | 100 |
| CN(C)S(=O)(=O)c1ccc2c(c1)/C(=C/c1cc3c([nH]1)CCCC3)C(=O)N2 | 63 |
| COc1ccc(CNC(=O)Nc2ncc([N+](=O)[O-])s2)cc1 | 108 |

## Input // returns reported residual activity for input `O=c1cc(N2CCOCC2)oc2c1ccc1ccccc12`
## Output 94

###

Molecular target: Aurora kinase B (Homo sapiens) (UniProt Q96GD4)
Sequence (Q96GD4 whole entry): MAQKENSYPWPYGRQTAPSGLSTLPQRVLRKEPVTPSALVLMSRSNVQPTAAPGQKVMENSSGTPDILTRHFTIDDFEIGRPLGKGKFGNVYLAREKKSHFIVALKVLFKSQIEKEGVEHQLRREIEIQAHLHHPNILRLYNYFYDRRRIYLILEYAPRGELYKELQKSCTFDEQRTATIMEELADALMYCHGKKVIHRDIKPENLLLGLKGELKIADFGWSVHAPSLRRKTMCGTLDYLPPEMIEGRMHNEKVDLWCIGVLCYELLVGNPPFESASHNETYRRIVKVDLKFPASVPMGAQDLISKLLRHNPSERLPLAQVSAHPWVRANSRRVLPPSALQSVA
Conditions: at 10 µM
Rule for this label: T means residual activity is less than 60%; F means residual activity is at least 60%.

Solved entries (count: 5):
| MOLECULE | CLASSIFICATION |
| --- | --- |
| O=C1NC(=O)C(c2cn(CCCO)c3ncccc23)=C1c1cnccn1 | T |
| O=C(NC(NC(=S)Nc1ccc(F)c([N+](=O)[O-])c1)C(Cl)(Cl)Cl)C(c1ccccc1)c1ccccc1 (stereo not given) | F |
| CC(C)[C@H](CO)Nc1nc(Nc2cc(N)cc(Cl)c2)c2ncn(C(C)C)c2n1 | T |
| CC(C)c1nn(-c2c(Cl)cccc2Cl)c2nc(Cc3ccc(OCCO)cc3)[nH]c(=O)c12 | T |
| NC(=O)c1cccc(-c2cc(Nc3ccc(OC(F)(F)F)cc3)ncn2)c1 | F |

## Input Does `Cn1c2ccccc2c2c3c(c4c5ccccc5n(CCC#N)c4c21)CNC3=O` have residual activity strictly under 60%?
## Output T

## Input Would you kindly repeat that for `Oc1cccc(-c2nc(N3CCOCC3)c3oc4ncccc4c3n2)c1` ?
## Output F

## Input Would you mind doing `O=C(CCCc1ccc(-c2ccccc2F)cc1)Nc1ccc(O)cc1` as well?
## Output F

## Input Same question for `COc1cc2c(cc1OC)-c1n[nH]c(Nc3cccc(F)c3)c1C2` please.
## Output T

## Input Further, for `c1ccc(-c2cnc(Nc3ccc(OCCN4CCCC4)cc3)s2)cc1` ?
## Output T
